System: HL-60, human proleukemia cells
Experiment: Cell-MTS cellular proliferation assay, HL-60
Type: cell-based
Conditions: 168 hr incubation
MEASUREMENT LABEL: IC50

Data request: IC50 for Cn1cc(-c2cc(S(C)(=O)=O)ccc2OCC2CC2)c2ccccc2c1=O ?
Data returned: ≤ 0.5 µM

====

Test: PK study of plasma exposure in mouse 6 hours after oral SDD preparations
Type: in vivo, female CD-1 mice
Conditions: female, CD-1, mouse, SDD with HPMC polymer, Compound 1:polymer 1:3, suspension in 0.5% MC
MEASUREMENT LABEL: AUC(0-t) (ng·h/mL)
Response body: numeric value in ng·h/mL, unit text excluded.

Data request: State the recorded AUC(0-t) for this entry: Cn1cc(-c2cc(S(C)(=O)=O)ccc2OCC2CC2)c2ccccc2c1=O [Compound 1]
Data returned: 24400

====

Target: BRD4(BD1) (Homo sapiens)
Construct: In a 384-well ProxiPlate BRD4(BD1) (2 nM final) was combined with peptide
Assay: In vitro enzyme inhibition assay (AlphaScreen, BRD4 / H4-tetraacetyl peptide)
Conditions: BRD4(BD1) 2 nM, peptide 15 nM
pIC50: −log10 of the molar value.
MEASUREMENT LABEL: pIC50

Data request: # get_value(readout='pIC50', item= Cn1cc(-c2cc(S(C)(=O)=O)ccc2OCC2CC2)c2ccccc2c1=O [Compound 1] )
Data returned: > 6.30

====

Experiment: PK study of plasma exposure in mouse 6 hours after oral SDD preparations
Type: in vivo, female CD-1 mice
Details: female, CD-1, mouse, SDD with PVP polymer, Compound 1:polymer 1:1, suspension in 0.5% MC
MEASUREMENT LABEL: AUC(0-t) (ng·h/mL)
Lab book: enter the figure in ng·h/mL, no units written.

Data request: GET /values?readout=AUC(0-t)&item= Cn1cc(-c2cc(S(C)(=O)=O)ccc2OCC2CC2)c2ccccc2c1=O
Data returned: 7190

====

Assay: PK study of plasma exposure in mouse 6 hours after oral SDD preparations
Assay type: in vivo, female CD-1 mice
Settings: female, CD-1, mouse, SDD with HPMC polymer, Compound 1:polymer 1:1, suspension in 0.5% MC
MEASUREMENT LABEL: AUC(0-t)
Returns: string containing the number followed by the unit.

Data request: Quick one: AUC(0-t) for Cn1cc(-c2cc(S(C)(=O)=O)ccc2OCC2CC2)c2ccccc2c1=O [Compound 1] ?
Data returned: 10500 ng·h/mL

====

Test: Aqueous solubility, kinetic shake flask method
Format: physicochemical
Settings: aqueous buffer, kinetic from dmso stock, pH=7.4 in 50 mM phosphate buffer
MEASUREMENT LABEL: solubility

Data request: Value lookup for solubility; key = Cn1cc(-c2cc(S(C)(=O)=O)ccc2OCC2CC2)c2ccccc2c1=O [Compound 1 Form A]
Data returned: 2.6 to 3.7 µg/mL

====

Experiment: PK study of plasma exposure in mouse 6 hours after oral SDD preparations
Assay type: in vivo, female CD-1 mice
Settings: female, CD-1, mouse, SDD with PVP polymer, Compound 1:polymer 1:3, suspension in 0.5% MC
MEASUREMENT LABEL: AUC(0-t)
# answer = value followed by unit

Data request: # input compound: Cn1cc(-c2cc(S(C)(=O)=O)ccc2OCC2CC2)c2ccccc2c1=O [Compound 1] ; wanted: its AUC(0-t)
Data returned: 8870 ng·h/mL

====

Assay: PK study of plasma exposure in rat after oral HPMCAS SDD preparations
Format: in vivo, female Sprague Dawley rats
Details: female, Sprague Dawley, 10 mg/kg, pH 7.4, SDD with HPMCAS-M polymer, Compound 1:polymer 1:3, suspension in 0.5% Methocel A4M/0.5% HPMCAS-HF/20 mM Tris, pH 7.4, read-out: mean AUC 0-24 hr
MEASUREMENT LABEL: AUC(0-t)
Note: a bare number is incomplete; add the unit.

Data request: What value of measured AUC(0-t) is listed for Cn1cc(-c2cc(S(C)(=O)=O)ccc2OCC2CC2)c2ccccc2c1=O [Compound 1] ?
Data returned: 24600 ng·h/mL
